System: IL-1β production by human PBMCs
run-description: IL-1β production by LPS- or PHA-stimulated PBMCs
Assay type: cell-based
stated-conditions: PBMC; LPS- and PHA-induced cytokine production by human PBMCs; read-out: IC50 IL-1β (pro-inflammatory cytokines)

compound: N#Cc1ccc(Oc2ccc3c(c2)COB3O)cc1
IC50: > 30 µM
--
compound: COc1ccc([C@]2(C#N)CC[C@@H](C(=O)O)CC2)cc1OC1CCCC1
IC50: > 30 µM
--
compound: COc1ccc(C2CNC(=O)C2)cc1OC1CCCC1 (stereo not drawn) [Rolipram, rolipram, reference compound]
IC50: > 30 µM

====

Listed here are compounds together with their documented IC50.
Tested on: IL-5
run-description: Cytokine assay, IL-5 release from PBMC
Format: cell-based
stated-conditions: human PBMC, 20 ug/mL PHA, supernatant at 48 hours
measurement-label: IC50

smiles-str: CNc1nc(Oc2ccc3c(c2)COB3O)ccc1C#N
assay-result: < 1000 nM
--
smiles-str: CN(C)Cc1cc(C#N)ccc1Oc1ccc2c(c1)COB2O
assay-result: 1000 to 4000 nM
--
smiles-str: CN(C)c1nc(Oc2ccc3c(c2)COB3O)ccc1C#N
assay-result: < 1000 nM
--
smiles-str: N#Cc1ccc(Oc2ccc3c(c2)COB3O)nc1N1CCCC1
assay-result: < 1000 nM
--
smiles-str: CCN(CC)C(=O)COc1cc(C#N)ccc1Oc1ccc2c(c1)COB2O
assay-result: < 1000 nM
--
smiles-str: COC(=O)c1cc(F)c(Oc2ccc3c(c2)COB3O)c(F)c1
assay-result: > 10000 nM
--
smiles-str: N#Cc1ccc(Oc2ccc3c(c2)COB3O)nc1NCc1ccccc1
assay-result: < 1000 nM
--
smiles-str: CN(C)CCNC(=O)c1ccc(Oc2ccc3c(c2)COB3O)cc1
assay-result: 4000 to 10000 nM
--
smiles-str: CC(C)OC(=O)c1ccc(Oc2ccc3c(c2)COB3O)c(F)c1
assay-result: 1000 to 4000 nM
--
smiles-str: CC(C)(C)OC(=O)COc1cc(Oc2ccc3c(c2)COB3O)ccc1C#N
assay-result: < 1000 nM

====

# inhibition in vivo at 3 mg annotations
Tested on: CD-1 (Crl.) derived male mice
run-description: Phorbol Ester Induced Mouse Ear Edema Model
Assay type: in vivo
stated-conditions: topical, 6 h, 3 mg/ear × 2 topical, 95% Ethanol, ear swelling 6 hours after PMA

compound: COCCOc1nc(Oc2ccc3c(c2)COB3O)ccc1C#N [D86]
inhibition in vivo at 3 mg: < 30%
--
compound: N#Cc1ccc(Oc2ccc3c(c2)COB3O)cc1OC1CCCC1 [D37]
inhibition in vivo at 3 mg: 60 to 90%
--
compound: N#Cc1ccc(Oc2ccc3c(c2)COB3O)nc1N1CCOCC1 [D102]
inhibition in vivo at 3 mg: 30 to 60%
--
compound: COc1nc(Oc2ccc3c(c2)COB3O)ccc1C#N [D46]
inhibition in vivo at 3 mg: 60 to 90%
--
compound: N#Cc1ccc(Oc2ccc3c(c2)COB3O)nc1OCCO [D99]
inhibition in vivo at 3 mg: 60 to 90%

====

In this section we review reported pIC50 values for a set of compounds.
Tested on: IL-10
run-description: Cytokine assay, IL-10 release from PBMC
Type: cell-based
stated-conditions: human PBMC, 20 ug/mL PHA, supernatant at 48 hours
pIC50: −log10 of the molar value.

smiles-str: N#Cc1ccc(Oc2ccc3c(c2)COB3O)cc1
pIC50: 5.00 to 5.40
--
smiles-str: N#Cc1ccc(Oc2ccc3c(c2)COB3O)nc1OCCO
pIC50: > 6.00
--
smiles-str: N#Cc1cnc(Oc2ccc3c(c2)COB3O)c(O)c1
pIC50: 5.40 to 6.00
--
smiles-str: N#Cc1ccc(Oc2ccc3c(c2)COB3O)nc1
pIC50: > 6.00
--
smiles-str: N#Cc1ccc(Oc2ccc3c(c2)COB3O)cc1C(=O)O
pIC50: < 5.00
--
smiles-str: CC(=O)Oc1cc(Oc2ccc3c(c2)COB3O)ccc1C#N
pIC50: 5.40 to 6.00
--
smiles-str: COCCOc1nc(Oc2ccc3c(c2)COB3O)ccc1C#N
pIC50: > 6.00
--
smiles-str: CCOc1cc(Oc2ccc3c(c2)COB3O)ncc1C#N
pIC50: > 6.00
--
smiles-str: CCOc1nc(Oc2ccc3c(c2)COB3O)ccc1C#N
pIC50: > 6.00
--
smiles-str: CCOC(=O)c1cc(F)c(Oc2ccc3c(c2)COB3O)c(F)c1
pIC50: < 5.00
--
smiles-str: CN(C)Cc1cc(C#N)ccc1Oc1ccc2c(c1)COB2O
pIC50: 5.40 to 6.00
--
smiles-str: N#Cc1ccc(Oc2ccc3c(c2)COB3O)cc1OCC(=O)N1CCOCC1
pIC50: 5.40 to 6.00
--
smiles-str: N#Cc1ccc(Oc2ccc3c(c2)COB3O)nc1NCCOCc1ccccc1
pIC50: 5.00 to 5.40
--
smiles-str: N#Cc1ccc(Oc2ccc3c(c2)COB3O)c(F)c1
pIC50: 5.40 to 6.00
--
smiles-str: N#Cc1ccc(Oc2ccc3c(c2)COB3O)c(O)c1
pIC50: 5.40 to 6.00
--
smiles-str: CC(C)(C)OC(=O)COc1cc(C#N)ccc1Oc1ccc2c(c1)COB2O
pIC50: > 6.00
--
smiles-str: COc1ccc(Oc2ccc3c(c2)COB3O)cc1OC
pIC50: < 5.00
--
smiles-str: COc1cc(Oc2ccc3c(c2)COB3O)ncc1C#N
pIC50: > 6.00
--
smiles-str: COCCNc1ccc(C#N)c(Oc2ccc3c(c2)COB3O)n1
pIC50: 5.40 to 6.00
--
smiles-str: CCNC(=O)c1ccc(Oc2ccc3c(c2)COB3O)nc1
pIC50: 5.40 to 6.00
--
smiles-str: N#Cc1ccc(Oc2ccc3c(c2)COB3O)cc1OC1CCCC1
pIC50: > 6.00
--
smiles-str: CCOc1cc(Oc2ccc3c(c2)COB3O)ccc1C#N
pIC50: > 6.00
--
smiles-str: COC(=O)c1ccc(Oc2ccc3c(c2)COB3O)nc1
pIC50: > 6.00

====

Tested on: IL-2 secretion from PBMCs
run-description: IL-2 secretion from PBMCs stimulated with PHA
Assay type: cell-based, human
stated-conditions: Homo sapiens, PBMC; PBMCs stimulated with PHA; read-out: IL-2 secretion IC50

smiles-str: N#Cc1ccc(Oc2ccc3c(c2)COB3O)cc1
tested-target: IL-2 secretion from PBMCs
unit-string: µM
IC50: 0.46

smiles-str: N#Cc1ccc(Oc2ccc3c(c2)COB3O)cc1C#N
tested-target: IL-2 secretion from PBMCs
unit-string: µM
IC50: 0.18

====

System: IL-5
run-description: Cytokine assay, IL-5 release from PBMC
Assay type: cell-based
stated-conditions: human PBMC, 20 ug/mL PHA, supernatant at 48 hours
pIC50: −log10 of the molar value.
measurement-label: pIC50

compound: N#Cc1ccc(Oc2ccc3c(c2)COB3O)c(O)c1
tested-target: IL-5
assay-result: > 6.00

compound: CCOC(=O)c1cc(F)c(Oc2ccc3c(c2)COB3O)c(F)c1
tested-target: IL-5
assay-result: < 5.00

compound: COc1ccc(C2CNC(=O)C2)cc1OC1CCCC1 (stereo not shown) [Rolipram, rolipram, reference compound]
tested-target: IL-5
assay-result: > 6.00

compound: CCOC(=O)c1cc(Cl)c(Oc2ccc3c(c2)COB3O)cc1F
tested-target: IL-5
assay-result: > 6.00

compound: CCCCOC(=O)c1ccc(Oc2ccc3c(c2)COB3O)nc1
tested-target: IL-5
assay-result: 5.40 to 6.00

compound: O=C(NCc1ccccn1)c1ccc(Oc2ccc3c(c2)COB3O)cc1
tested-target: IL-5
assay-result: 5.40 to 6.00

compound: N#Cc1ccc(Oc2ccc3c(c2)COB3O)cc1
tested-target: IL-5
assay-result: 5.40 to 6.00

compound: CCCOC(=O)c1ccc(Oc2ccc3c(c2)COB3O)nc1
tested-target: IL-5
assay-result: > 6.00

compound: COc1cc(Oc2ccc3c(c2)COB3O)ncc1C#N
tested-target: IL-5
assay-result: > 6.00

compound: CN(CCO)c1ccc(C#N)c(Oc2ccc3c(c2)COB3O)n1
tested-target: IL-5
assay-result: > 6.00

====

System: TNF-α
run-description: Cytokine assay, TNF-α release from PBMC
Format: cell-based
stated-conditions: Homo sapiens, PBMC, 24 h, 1 μg/mL LPS, supernatant at 24 hours

smiles-str: COCCN(C)c1nc(Oc2ccc3c(c2)COB3O)ccc1C#N
IC50: < 1000 nM
//
smiles-str: CCOC(=O)c1cnc(Oc2ccc3c(c2)COB3O)c(Cl)c1
IC50: < 1000 nM
//
smiles-str: CCCCOC(=O)c1ccc(Oc2ccc3c(c2)COB3O)nc1
IC50: < 1000 nM
//
smiles-str: O=C(O)c1cnc(Oc2ccc3c(c2)COB3O)c(Cl)c1
IC50: 4000 to 10000 nM
//
smiles-str: COc1nc(Oc2ccc3c(c2)COB3O)ccc1C#N
IC50: < 1000 nM
//
smiles-str: CCCOC(=O)c1ccc(Oc2ccc3c(c2)COB3O)cc1
IC50: 1000 to 4000 nM
//
smiles-str: CCOC(=O)c1ccc(Oc2ccc3c(c2)COB3O)nc1OCC
IC50: < 1000 nM
//
smiles-str: COCCOc1nc(Oc2ccc3c(c2)COB3O)ccc1C#N
IC50: < 1000 nM
//
smiles-str: N#Cc1ccc(Oc2ccc3c(c2)B(O)OC3)cc1
IC50: > 10000 nM
//
smiles-str: O=C1NC(=O)c2cc(Oc3ccc4c(c3)COB4O)ccc21
IC50: < 1000 nM
//
smiles-str: COc1cc(Oc2ccc3c(c2)COB3O)ccc1C#N
IC50: < 1000 nM
